- System: human Factor XI mRNA
- test: Dose-dependent inhibition and IC50 in HepG2 cells, electroporation (Example 15)
- Type: cell-based
- details: electroporation, 10,000.0 nM
In the oligonucleotide strings, read from the 5' end, every base follows the letter of its sugar. An asterisk marks phosphorothioate; unmarked linkages are phosphodiester. Other units and linkages are bracketed, terminal groups are in braces. A string of capitals states the bases alone. e = 2'-O-(2-methoxyethyl) (MOE); [5mC] = 5-methylcytosine; d = 2'-deoxy (DNA)
assay readout: percent inhibition of Factor XI mRNA (%)

>>> value_observed("416849 (antisense eG*e[5mC]*eA*e[5mC]*eA*dG*dT*dT*dT*d[5mC]*dT*dG*dG*d[5mC]*dA*eG*eG*e[5mC]*e[5mC]*eT) [compound 416849]")
68
>>> value_observed("445505 (antisense e[5mC]*eG*eG*e[5mC]*eA*eT*dT*dG*dG*dT*dG*d[5mC]*dA*d[5mC]*eA*eG*eT*eT*eT*e[5mC]) [compound 445505]")
77
>>> value_observed("445503 (antisense GCATTGGTGCACAGTTTCTG; 6-8-6 gapmer chemical modifications, chemistry not fully specified) [compound 445503]")
60
>>> value_observed("416860 (antisense CGGACGGCATTGGTGCACAG; 5-10-5 gapmer, wing sugar chemistry not given here, further chemistry not given here) [compound 416860]")
40
>>> value_observed("416851 (antisense GTGCACAGTTTCTGGCAGGC; 5-10-5 gapmer, wing sugar chemistry not given here, further chemistry not given here) [compound 416851]")
72

---

- Test system: human Factor XI mRNA
- test: Dose-dependent inhibition in HepG2 cells, lipofectin (Example 5)
- Assay type: cell-based
- details: 18.75 nM, 16 hours
assay readout: percent inhibition of human Factor XI mRNA, relative to untreated control cells (%)

>>> value_observed("416838 (antisense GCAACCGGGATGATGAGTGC; 5-10-5 gapmer, wing sugar chemistry not given here, further chemistry not given here) [compound 416838]")
63
>>> value_observed("416999 (antisense GCACAGTTTCTGGCAGGCCT; 2-13-5 gapmer, wing sugar chemistry not given here, further chemistry not given here) [compound 416999]")
62
>>> value_observed("417002 (antisense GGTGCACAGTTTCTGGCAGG; 2-13-5 gapmer, wing sugar chemistry not given here, further chemistry not given here) [compound 417002]")
61

---

- test: Cynomolgus monkeys: body and organ weights (Example 29)
- Type: in vivo
- details: escalating doses 5, 10, 25 mg/kg s.c., day 50
In the oligonucleotide strings, read from the 5' end, every base follows the letter of its sugar. An asterisk marks phosphorothioate; unmarked linkages are phosphodiester. Other units and linkages are bracketed, terminal groups are in braces. A string of capitals states the bases alone. e = 2'-O-(2-methoxyethyl) (MOE); [5mC] = 5-methylcytosine; d = 2'-deoxy (DNA)
Listing of recorded Body weight by entry.
assay readout: Body weight (g)

>>> value_observed("ISIS 416850: gapmer of Table 8 (antisense eT*eG*e[5mC]*eA*e[5mC]*dA*dG*dT*dT*dT*d[5mC]*dT*dG*dG*d[5mC]*eA*eG*eG*e[5mC]*e[5mC])")
2613
>>> value_observed("ISIS 416858: gapmer of Table 8 (antisense eA*e[5mC]*eG*eG*e[5mC]*dA*dT*dT*dG*dG*dT*dG*d[5mC]*dA*d[5mC]*eA*eG*eT*eT*eT)")
2646
>>> value_observed("ISIS 417002: gapmer of Table 8 (antisense eG*eG*dT*dG*d[5mC]*dA*d[5mC]*dA*dG*dT*dT*dT*d[5mC]*dT*dG*eG*e[5mC]*eA*eG*eG)")
2652
>>> value_observed("ISIS 416838: gapmer of Table 6 (antisense eG*e[5mC]*eA*eA*e[5mC]*d[5mC]*dG*dG*dG*dA*dT*dG*dA*dT*dG*eA*eG*eT*eG*e[5mC])")
2731
>>> value_observed("ISIS 416864: gapmer of Table 8 (antisense eG*eG*e[5mC]*eA*eG*d[5mC]*dG*dG*dA*d[5mC]*dG*dG*d[5mC]*dA*dT*eT*eG*eG*eT*eG)")
3408
